testSystem: T1, ROR1-His (UniProt Q01973 30-403, limits assumed)
T1 construct: The construct is described nowhere; not shown: His tag
T1 sequence (Q01973 30-403 limits assumed): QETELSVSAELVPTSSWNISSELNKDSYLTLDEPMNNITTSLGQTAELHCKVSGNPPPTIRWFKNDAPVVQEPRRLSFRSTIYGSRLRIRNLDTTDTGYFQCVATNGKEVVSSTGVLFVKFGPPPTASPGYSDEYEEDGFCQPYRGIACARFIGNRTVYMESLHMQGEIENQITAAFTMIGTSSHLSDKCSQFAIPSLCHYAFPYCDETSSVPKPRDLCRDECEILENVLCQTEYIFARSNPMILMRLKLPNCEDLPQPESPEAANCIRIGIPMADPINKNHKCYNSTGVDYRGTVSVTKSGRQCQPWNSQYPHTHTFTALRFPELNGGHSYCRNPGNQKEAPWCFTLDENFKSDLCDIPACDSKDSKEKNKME
assayInfo: ROR1-His affinity of the construct's binding domain; method not given
pKd: −log10 of the molar value.
This section presents binders with their documented pKd values.
quantityMeasured: pKd

- Hum ROR1_18VH_(G4S)3x_VL_04 (antibody, mouse IgG1, V domains shown, The name reads as an scFv with a (G4S)3 linker; The method text says variable regions were fused to mouse constant regions (chimeric mouse IgG1); VH/VL are tied by the numbers in the name) VH: EVQLVESGGGLVQPGGSLRLSCSASGFTFSSYAMSWVRQVPGKGLVWISSISRGGTTYYADSVRGRFIISRDNAKNTLYLEMNNLRGEDTAVYYCARYDYDGYYAMDYWGQGTLVTVSS VL: DIQMTQSPSSLSASVGDRVTITCQASPDINSYLNWYQQKPGKAPKLLIYRANNLETGVPSRFSGSGSGTDFTLTISSLQPEDIATYYCLQYDEFPYTFGQGTKLEIK: 9.43
- Hum ROR1_05VH_(G4S)3x_VL_14 (antibody, mouse IgG1, V domains shown, The name reads as an scFv with a (G4S)3 linker; The method text says variable regions were fused to mouse constant regions (chimeric mouse IgG1); VH/VL are tied by the numbers in the name) VH: EVQLVESGGGLVQPGGSLRLSCAASGFTFSSYAMSWVRQAPGKGLEWVSSISRGGTTYYPDSVKGRFTISRDNSKNTLYLQMNSLRAEDTAVYYCGRYDYDGYYAMDYWGQGTLVTVSS VL: DIQMTQSPSSLSASVGDRVTITCKASPDINSYLNWYQQKPGKAPKLLIYRANRLVDGVPSRFSGSGSGTDYTLTISSLQPEDFATYYCLQYDEFPYTFGAGTKVEIK: 9.45
- Hum ROR1_05VH_(G4S)3x_VL_16 (antibody, mouse IgG1, V domains shown, The name reads as an scFv with a (G4S)3 linker; The method text says variable regions were fused to mouse constant regions (chimeric mouse IgG1); VH/VL are tied by the numbers in the name) VH: EVQLVESGGGLVQPGGSLRLSCAASGFTFSSYAMSWVRQAPGKGLEWVSSISRGGTTYYPDSVKGRFTISRDNSKNTLYLQMNSLRAEDTAVYYCGRYDYDGYYAMDYWGQGTLVTVSS VL: DIQMTQSPSSLSASVGDRVTITCKASPDINSYLNWYQQKPGKAPKVLIYRANRLVDGVPSRFSGSGSGTDYTLTISSLQPEDFATYYCLQYDEFPYTFGQGTKVEIK: 9.47
